Recorded values, source patent US11242344B2.

Biological target: VHL co-expressed with Elongins B and C (Homo sapiens (Human), UniProt P40337)
Sequence (P40337 whole entry, looked up): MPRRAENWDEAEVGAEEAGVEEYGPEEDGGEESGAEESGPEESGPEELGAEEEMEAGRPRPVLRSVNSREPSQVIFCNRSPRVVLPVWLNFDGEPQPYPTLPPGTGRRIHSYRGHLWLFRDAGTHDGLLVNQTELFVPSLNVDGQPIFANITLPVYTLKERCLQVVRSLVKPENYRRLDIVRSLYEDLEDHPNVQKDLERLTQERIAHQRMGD
Sequence (Q15370 whole entry partner, looked up): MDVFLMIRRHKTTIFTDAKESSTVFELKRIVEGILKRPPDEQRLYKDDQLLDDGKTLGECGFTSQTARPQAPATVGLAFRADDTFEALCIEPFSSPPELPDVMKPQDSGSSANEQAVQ
Sequence (Q15369 whole entry partner, looked up): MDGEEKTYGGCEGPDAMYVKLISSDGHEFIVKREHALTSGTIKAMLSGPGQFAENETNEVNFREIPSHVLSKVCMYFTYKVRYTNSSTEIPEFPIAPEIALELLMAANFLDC
Assay: Surface Plasmon Resonance Assay
Type: binding
Conditions: SPR measured VHL affinity; geometric mean where more than one measurement
Kindly apply the following: condition met if Kd is less than 9 µM, condition not met in every other case.

COMPOUND	TEST_TARGET	CLASS_NAME
Cc1ncsc1-c1ccc([C@]2(C)NC(C3C[C@@H](O)CN3C(=O)C(c3cc(O)no3)C(C)C)=NC2=O)cc1 (single isomer, unassigned) [Example 116.2]	VHL co-expressed with Elongins B and C (Homo sapiens (Human), UniProt P40337)	condition not met
Cc1ncsc1-c1ccc([C@]2(C)NC(C3C[C@@H](O)CN3C(=O)[C@@H]3CCCCN3S(C)(=O)=O)=NC2=O)cc1 (single isomer, unassigned) [Example 122.1]	VHL co-expressed with Elongins B and C (Homo sapiens (Human), UniProt P40337)	condition not met
Cc1cc([C@@H](C(=O)N2C[C@H](O)C[C@H]2C2=NOC3(CCCC3)N2)C(C)C)on1	VHL co-expressed with Elongins B and C (Homo sapiens (Human), UniProt P40337)	condition not met
Cc1cc([C@H](C(=O)N2C[C@H](O)C[C@H]2C2=NO[C@](c3ccccc3)(C(F)(F)F)N2)C(C)C)on1 (mixture of isomers) [Example 114.2]	VHL co-expressed with Elongins B and C (Homo sapiens (Human), UniProt P40337)	condition not met
CC(=O)N[C@H](C(=O)N1C[C@H](O)CC1C1=NC(=O)C(C)(c2ccc(-c3scnc3C)cc2)N1)C(C)(C)C (single isomer, unassigned) [Example 102.3]	VHL co-expressed with Elongins B and C (Homo sapiens (Human), UniProt P40337)	condition not met
Cc1cc([C@H](C(=O)N2C[C@H](O)C[C@H]2C2=NO[C@@](C)(c3ccc(Br)cc3)N2)C(C)C)on1 (mixture of isomers)	VHL co-expressed with Elongins B and C (Homo sapiens (Human), UniProt P40337)	condition met
Cc1cc(C(C(=O)N2C[C@H](O)CC2C2=NC(=O)C(C)(c3ccc(-c4cccnc4)cc3)N2)C(C)C)on1 (single isomer, unassigned) [Example 105.2]	VHL co-expressed with Elongins B and C (Homo sapiens (Human), UniProt P40337)	condition not met
Cc1ncsc1-c1ccc([C@]2(C)NC(C3C[C@@H](O)CN3C(=O)[C@@H]3CCCCN3S(C)(=O)=O)=NC2=O)cc1 (single isomer, unassigned) [Example 122.2]	VHL co-expressed with Elongins B and C (Homo sapiens (Human), UniProt P40337)	condition met
Cc1ncsc1-c1ccc([C@]2(C)NC(C3C[C@@H](O)CN3C(=O)[C@H]3CCCN3S(C)(=O)=O)=NC2=O)cc1 (single isomer, unassigned) [Example 120.1]	VHL co-expressed with Elongins B and C (Homo sapiens (Human), UniProt P40337)	condition not met
CC(=O)N[C@H](C(=O)N1C[C@H](O)CC1C1=NC(=O)C(C)(c2ccc(Br)cc2)N1)C(C)(C)C (single isomer, unassigned) [Example 101.2]	VHL co-expressed with Elongins B and C (Homo sapiens (Human), UniProt P40337)	condition not met

* * *

Target: VHL Elongin B/C complex (Homo sapiens (Human))
Sequence (P40337 whole entry, looked up): as the sequence (P40337 whole entry, looked up) above
Sequence (Q15370 whole entry partner, looked up): as the sequence (Q15370 whole entry partner, looked up) above
Sequence (Q15369 whole entry partner, looked up): as the sequence (Q15369 whole entry partner, looked up) above
Assay: Fluorescence Polarization (FP) VHL Binding Assay
Conditions: VHL binding, FP assay; geometric mean where more than one measurement
Kindly apply the following: YES if IC50 is less than 40 µM, NO in every other case.

MOLECULE	CLASS_NAME
Cc1cc(C(C(=O)N2C[C@H](O)CC2C2=NC(=O)C(C)(c3ccc(-c4scnc4C)cc3)N2)C(C)C)on1 (single isomer, unassigned) [Example 104.1]	NO
Cc1cc(C(C(=O)N2C[C@H](O)CC2C2=NC(=O)C(C)(c3ccc(-c4cccnc4)cc3)N2)C(C)C)on1 (single isomer, unassigned) [Example 105.2]	NO
Cc1cc([C@H](C(=O)N2C[C@H](O)C[C@H]2C2=NOC(C)(c3ccc(-c4scnc4C)cc3)N2)C(C)C)on1 (single isomer, unassigned) [Example 129.4]	YES
Cc1ncsc1-c1ccc([C@]2(C)NC(C3C[C@@H](O)CN3C(=O)[C@@H]3CCCCN3S(C)(=O)=O)=NC2=O)cc1 (single isomer, unassigned) [Example 122.2]	YES
Cc1ncsc1-c1ccc([C@]2(C)NC(C3C[C@@H](O)CN3C(=O)C(c3cc(OCCCCCNC(=O)c4cc5c(cc4CS(C)(=O)=O)-c4cn(C)c(=O)c6[nH]cc(c46)CN5c4ncc(F)cc4F)no3)C(C)C)=NC2=O)cc1 (single isomer, unassigned) [Example 1001.2]	YES
Cc1ncsc1-c1ccc([C@]2(C)NC(C3C[C@@H](O)CN3C(=O)C(c3cnn(C)c3)C(C)C)=NC2=O)cc1 (single isomer, unassigned) [Example 110.3]	NO
Cc1ncsc1-c1ccc([C@]2(C)NC(C3C[C@@H](O)CN3C(=O)[C@@H]3CCCCN3S(C)(=O)=O)=NC2=O)cc1 (single isomer, unassigned) [Example 122.1]	NO
Cc1cc([C@H](C(=O)N2C[C@H](O)C[C@H]2C2=NOC3(CCc4ccccc43)N2)C(C)C)on1 (single isomer, unassigned) [Example 130.3]	YES
Cc1ncsc1-c1ccc([C@]2(C)NC(C3C[C@@H](O)CN3C(=O)C(c3cc(O)no3)C(C)C)=NC2=O)cc1 (single isomer, unassigned) [Example 116.4]	YES
Cc1cc(C(C(=O)N2C[C@H](O)C[C@H]2C2=NN(c3ccccc3)C(C)(C)N2)C(C)C)on1 (single isomer, unassigned) [Example 135.1]	NO
CC(=O)N1CCCCC1C(=O)N1C[C@H](O)CC1C1=NC(=O)[C@](C)(c2ccc(-c3scnc3C)cc2)N1 (single isomer, unassigned) [Example 124.1]	NO
